biological target: MTHFD2 recombinant human enzyme (Homo sapiens); assay: MTHFD2 inhibition assay (NAD(P)H-Glo luminescence); settings: selectivity of MTHFD2 inhibition over MTHFD1, band
Sequence (P13995 36-350): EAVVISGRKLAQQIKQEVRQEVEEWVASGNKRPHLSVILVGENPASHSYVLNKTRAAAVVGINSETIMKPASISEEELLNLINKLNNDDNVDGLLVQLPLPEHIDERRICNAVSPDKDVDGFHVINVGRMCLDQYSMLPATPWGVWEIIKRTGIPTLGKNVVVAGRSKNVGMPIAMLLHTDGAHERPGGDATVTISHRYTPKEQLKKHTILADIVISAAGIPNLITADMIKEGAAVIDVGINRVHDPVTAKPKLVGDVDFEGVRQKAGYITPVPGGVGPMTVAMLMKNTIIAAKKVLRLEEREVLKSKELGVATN

COMPOUND: COC[C@H]1CN(c2cc(C)c3c4c(c(=O)oc3c2C)CN(C(=O)c2cc(Cl)c(C(=O)NS(=O)(=O)N(C)C)c(N3CC5CC5C3)c2)CC4)CCN1C (stereo partly drawn) [Example 34]
MTHFD1/MTHFD2 IC50 ratio: J (>30)
//
COMPOUND: CCc1cc(N2CCN(C)[C@@H](COC)C2)c(C)c2oc(=O)c3c(c12)CCN(C(=O)c1cc(N(C)C)c(C(=O)NS(=O)(=O)N2CCCC2)cc1F)C3 [Example 245]
MTHFD1/MTHFD2 IC50 ratio: J (>30)
//
COMPOUND: COC[C@H]1CN(c2ccc3c4c(c(=O)oc3c2Cl)CN(C(=O)c2ccc(C(=O)NS(=O)(=O)N3CCCC3)c(OC3CCCC3)c2F)CC4)CCN1C [Example 6]
MTHFD1/MTHFD2 IC50 ratio: F (<3)
//
COMPOUND: COC[C@H]1CN(c2cc(C)c3c4c(c(=O)oc3c2C)CN(C(=O)c2ccc(C(=O)NS(=O)(=O)N(C)C)c(N3C5CCC3CC5)c2)CC4)CCN1C [Example 49]
MTHFD1/MTHFD2 IC50 ratio: F (<3)
//
COMPOUND: COC[C@H]1CN(c2cc(F)c3c4c(c(=O)oc3c2C)CN(C(=O)c2cc(OC)c(C(=O)NS(=O)(=O)N3CCCC3)cc2F)CC4)CCN1C [Example 309]
MTHFD1/MTHFD2 IC50 ratio: J (>30)

###

target: MTHFD2 recombinant human enzyme (Homo sapiens); assay: MTHFD2 inhibition assay (NAD(P)H-Glo luminescence); conditions: selectivity of MTHFD2 inhibition over MTHFD1, band

MOLECULE: COC[C@H]1CN(c2cc(Cl)c3c4c(c(=O)oc3c2C)CN(C(=O)c2cc(N(C)C)c(C(=O)NS(=O)(=O)N3CCC5(CC5)C3)cc2F)CC4)CCN1C
MTHFD1/MTHFD2 IC50 ratio: H (>9.0 to 30)
//
MOLECULE: COC[C@H]1CN(c2ccc3c4c(c(=O)oc3c2C)CN(C(=O)c2ccc(C(=O)NS(=O)(=O)N(C)C)c(OC3CCCC3)c2F)CC4)CCN1C
MTHFD1/MTHFD2 IC50 ratio: F (<3)
//
MOLECULE: CCOC[C@H]1CN(c2ccc3c4c(c(=O)oc3c2C)CN(C(=O)c2ccc(C(=O)NS(=O)(=O)N3CCCC3)c(OC3CCC3)c2F)CC4)CCN1C
MTHFD1/MTHFD2 IC50 ratio: G (^ 3 to 9.0)
//
MOLECULE: COC[C@H]1CN(c2cc(C)c3c4c(c(=O)oc3c2C)CN(C(=O)c2ccc(C(=O)NS(=O)(=O)N(C)C)c(N3CCC3)c2)CC4)CCN1C
MTHFD1/MTHFD2 IC50 ratio: F (<3)
//
MOLECULE: COC[C@H]1CN(c2cc(C)c3c4c(c(=O)oc3c2C)CN(C(=O)c2cc(OC3CCCC3)c(C(=O)NS(=O)(=O)N(C)C)cc2F)CC4)CCN1C
MTHFD1/MTHFD2 IC50 ratio: F (<3)
//
MOLECULE: CCOc1c(C(=O)NS(=O)(=O)N2CC3CC3C2)ccc(C(=O)N2CCc3c(c(=O)oc4c(C)c(N5CCN(C)[C@@H](COC)C5)cc(C)c34)C2)c1F (stereo partly shown)
MTHFD1/MTHFD2 IC50 ratio: G (^ 3 to 9.0)
//
MOLECULE: COC[C@H]1CN(c2cc(C)c3c4c(c(=O)oc3c2C)CN(C(=O)c2ccc(C(=O)NS(=O)(=O)N3CCCC3)c(OC3CCC3)c2F)CC4)CCN1C
MTHFD1/MTHFD2 IC50 ratio: F (<3)
//
MOLECULE: CCOc1c(C(=O)NS(=O)(=O)N2CC3(CCC3)C2)ccc(C(=O)N2CCc3c(c(=O)oc4c(C)c(N5CCN(C)[C@@H](COC)C5)cc(C)c34)C2)c1F
MTHFD1/MTHFD2 IC50 ratio: F (<3)
//
MOLECULE: Cc1c(N2CCN(C)[C@@H](COC(C)C)C2)ccc2c3c(c(=O)oc12)CN(C(=O)c1ccc(C(=O)NS(=O)(=O)N2CCCC2)c(OC2CCC2)c1F)CC3
MTHFD1/MTHFD2 IC50 ratio: F (<3)
//
MOLECULE: COC[C@H]1CN(c2cc(Cl)c3c4c(c(=O)oc3c2C)CN(C(=O)c2cc(N(C)C)c(C(=O)NS(=O)(=O)N3CCC[C@@H]3C(F)(F)F)cc2F)CC4)CCN1C
MTHFD1/MTHFD2 IC50 ratio: H (>9.0 to 30)
//
MOLECULE: COC[C@H]1CN(c2cc(Cl)c3c4c(c(=O)oc3c2C)CN(C(=O)c2cc(N(C)C)c(C(=O)NS(=O)(=O)N3C5CCC3COC5)cc2F)CC4)CCN1C
MTHFD1/MTHFD2 IC50 ratio: J (>30)
//
MOLECULE: COC[C@H]1CN(c2cc(Cl)c3c4c(c(=O)oc3c2C)CN(C(=O)c2cc(N(C)C)c(C(=O)NS(=O)(=O)N3CCC(C(F)(F)F)CC3)cc2F)CC4)CCN1C
MTHFD1/MTHFD2 IC50 ratio: J (>30)
//
MOLECULE: COC[C@H]1CN(c2ccc3c4c(c(=O)oc3c2Cl)CN(C(=O)c2ccc(C(=O)NS(=O)(=O)N(C)C)c(OC3CCCC3)c2F)CC4)CCN1C
MTHFD1/MTHFD2 IC50 ratio: F (<3)
//
MOLECULE: COC[C@H]1CN(c2ccc3c4c(c(=O)oc3c2Cl)CN(C(=O)c2ccc(C(=O)NS(=O)(=O)N(C)C(C)C)c(OC3CCC3)c2F)CC4)CCN1C
MTHFD1/MTHFD2 IC50 ratio: F (<3)
//
MOLECULE: COC[C@H]1CN(c2ccc3c4c(c(=O)oc3c2C)CN(C(=O)c2cc(F)c(C(=O)NS(=O)(=O)C3(C)CC3)c(N3C5CCC3CC5)c2)CC4)CCN1C
MTHFD1/MTHFD2 IC50 ratio: F (<3)
//
MOLECULE: COC[C@H]1CN(c2cc(C)c3c4c(c(=O)oc3c2C)CN(C(=O)c2ccc(C(=O)NS(=O)(=O)N3CCCC3)c(OC3C[C@@H]5C[C@@H]5C3)c2)CC4)CCN1C (mixture of isomers)
MTHFD1/MTHFD2 IC50 ratio: F (<3)
//
MOLECULE: COC[C@H]1CN(c2ccc3c4c(c(=O)oc3c2C)CN(C(=O)c2ccc(C(=O)NS(=O)(=O)C3(C)CC3)c(OC3CCC3)c2F)CC4)CCN1C
MTHFD1/MTHFD2 IC50 ratio: G (^ 3 to 9.0)
//
MOLECULE: COC[C@H]1CN(c2cc(Cl)c3c4c(c(=O)oc3c2C)CN(C(=O)c2cc(F)c(C(=O)NS(=O)(=O)N3CCCC3)cc2OC)CC4)CCN1C
MTHFD1/MTHFD2 IC50 ratio: J (>30)
//
MOLECULE: COC[C@H]1CN(c2cc(C)c3c4c(c(=O)oc3c2C)CN(C(=O)c2ccc(C(=O)NS(=O)(=O)N3CCCC3)c(F)c2)CC4)CCN1C
MTHFD1/MTHFD2 IC50 ratio: J (>30)
//
MOLECULE: COC[C@H]1CN(c2cc(C)c3c4c(c(=O)oc3c2C)CN(C(=O)c2ccc(C(=O)NS(=O)(=O)N3CCCC3)c(O[C@H]3C[C@@H]5C[C@@H]5C3)c2F)CC4)CCN1C
MTHFD1/MTHFD2 IC50 ratio: F (<3)
//
MOLECULE: COC[C@H]1CN(c2cc(C)c3c4c(c(=O)oc3c2C)CN(C(=O)c2cc(OC3CCC3)c(C(=O)NS(=O)(=O)N3CCCC3)c(C(F)(F)F)c2)CC4)CCN1C
MTHFD1/MTHFD2 IC50 ratio: H (>9.0 to 30)
//
MOLECULE: COC[C@H]1CN(c2cc(C)c3c4c(c(=O)oc3c2C)CN(C(=O)c2cc(OC)c(C(=O)NS(=O)(=O)N(C)C)c(N3CCCC3)c2)CC4)CCN1C
MTHFD1/MTHFD2 IC50 ratio: G (^ 3 to 9.0)

The reported numbers originate from patent US12662489B2.
